Assay: in vitro
Details: human, hela cells, % viability
molecules and their reported viability at 28.5 h, 10 µM
Give the quantity in %, number only.

MOLECULE	UNIT_OF_MEASURE	viability at 28.5 h, 10 µM
CNC(=O)c1cc(S(=O)(=O)N(C2CC2)C2CCc3ccccc32)cn1C (stereo not drawn) [CBK305988]	%	106
COc1ccc(-c2cn(C[C@H]3CC4CCN3C[C@@H]4C(=O)NC3CCCCC3)nn2)cc1 (stereo partly drawn) [CBK289084]	%	107

QUERY: Item CC(NC(=O)CC(F)(F)F)c1nc(-c2ccncc2)cs1 (stereo not drawn) [CBK306370] has what recorded viability at 28.5 h, 10 µM?
RESULT: 88.5

###

molecules and their reported viability at 28.5 h, 10 µM
Experiment: in vitro
Settings: human, hela cells, % viability
Give the quantity in %, number only.

MOLECULE	PROPERTY	UNIT_OF_MEASURE	ENDPOINT_VALUE
CC(C)NC(=O)c1sc2ccccc2c1C1CCN(C(=O)COc2ccccc2)C1 (stereo not drawn)	viability at 28.5 h, 10 µM	%	113
COc1cc(CN2CCCN(C)CC2)c([N+](=O)[O-])cc1OC	viability at 28.5 h, 10 µM	%	90.2

The record that follows has no viability at 28.5 h, 10 µM shown yet.
QUERY: Item Cc1cc(C)n(Cc2cc(C(=O)NCC(C)Oc3cccnc3)n[nH]2)n1 (stereo not drawn) has what recorded viability at 28.5 h, 10 µM?
RESULT: 85.9

###

Assay: in vitro
Settings: human, hela cells, % viability
PROPERTY: viability at 28.5 h, 10 µM (%)
Give the quantity in %, number only.

The examples below pair each entry with its known result.
COMPOUND	viability at 28.5 h, 10 µM (%)
CC(Oc1cccc(Cl)c1)C(=O)NN (stereo not drawn)	90.1
Cn1ncc2c(NCCCN3CCCC(CO)C3)nc(C(C)(C)C)nc21 (stereo not drawn)	93
O=C(O)CC1S/C(=N/N=C/c2ccco2)NC1=O (stereo not drawn)	93.7
COC(=O)COc1ccc(C2Nc3c(Cl)ccc(C(=O)O)c3C3C=CCC32)cc1 (stereo not drawn)	99.9
CCSc1nc(-c2ccncc2)ccc1C#N	75.2

QUERY: Item C=CCOc1c(Br)cc(CNc2ccc(C(=O)O)cc2)cc1OC has what recorded viability at 28.5 h, 10 µM?
RESULT: 111

QUERY: Item CS(=O)(=O)Nc1ccc2c(O)c(C(=O)NCc3ccc(Cl)cc3)c(=O)[nH]c2c1 has what recorded viability at 28.5 h, 10 µM?
RESULT: 88.9

QUERY: Item CC(C)(C)C1=CC2=NC3(CCC3)[C@@H]3C[C@@H](O)[C@@H](O)[C@@H]3N2O1 has what recorded viability at 28.5 h, 10 µM?
RESULT: 104

QUERY: Item COC(=O)C(Nc1cccc(Cl)c1)(c1cc(OC)c(O)c(OC)c1)C(F)(F)F (stereo not drawn) has what recorded viability at 28.5 h, 10 µM?
RESULT: 96.6

###

compounds and their reported viability at 28.5 h, 10 µM
Test: in vitro
Conditions: human, hela cells, % viability

COMPOUND	ENDPOINT_VALUE
CCOCCn1c(N2CCCC(C)C2)nc2c1c(=O)[nH]c(=O)n2C (centres unmarked)	85.1%
COc1cccc(CN2CCCC3(C2)c2[nH]c4ccccc4c2CCN3C(C)=O)c1 (centres unmarked)	86.4%
CC(c1ccc(Cl)cc1)N(CCN(C)C)c1ccccn1 (centres unmarked) [CBK012273F]	100%
COc1ccc(Oc2ncnc3c2oc2ccccc23)cc1	86.4%
CSc1ncccc1C(=O)NCc1ccc(NC(C)=O)cc1	97%
Cc1nn(Cc2c(F)cccc2Cl)c(C)c1NC(=O)c1cnn2c(C(F)F)cc(-c3ccccc3)nc12	95.3%

QUERY: Item O=C1OC(c2ccco2)=N/C1=C/c1ccccc1OC(=O)c1ccco1 has what recorded viability at 28.5 h, 10 µM?
RESULT: 103%

QUERY: Item COc1ccc(C(NC(=O)c2cc3ccccc3[nH]2)C2CC2)cc1 (centres unmarked) has what recorded viability at 28.5 h, 10 µM?
RESULT: 97.9%

QUERY: Item Cc1ncsc1CCN(C)C(C)C(=O)Nc1nccs1 (centres unmarked) has what recorded viability at 28.5 h, 10 µM?
RESULT: 109%

###

Tested on: CTL2-GFP (C. trachomatis L2/434/Bu, GFP-expressing)
Construct: L2/434/Bu, GFP-expressing
Experiment: microbe, parasite or virus in culture
Design: Intracellular C. trachomatis growth in HeLa cells, bulk GFP fluorescence relative to DMSO
Settings: Chlamydia trachomatis, HeLa, 28.5 h; bulk GFP, mean of 2; read-out: % of control remaining
PROPERTY: activity at 1 µM (%)
Give the quantity in %, number only.

QUERY: Item Cc1nc(C(=N)N)nc2ccccc12 [CBK010368C] has what recorded activity at 1 µM?
RESULT: 94.1

QUERY: Item O=C(Nc1ccc(OC(F)(F)F)cc1)Nc1cc(-c2cccs2)n[nH]1 has what recorded activity at 1 µM?
RESULT: 100

QUERY: Item O=C(NCc1ccc([N+](=O)[O-])cc1)c1cccnc1NCc1ccc2c(c1)OCO2 has what recorded activity at 1 µM?
RESULT: 113

###

Test: in vitro
Details: human, hela cells, % viability
PROPERTY: viability at 28.5 h, 10 µM (%)
Give the quantity in %, number only.

MOLECULE	viability at 28.5 h, 10 µM (%)
Cc1nc(C2(O)CCCN(Cc3cccc(F)c3)CC2)sc1CCOc1ccccc1 (centres unmarked)	89.6
COC(=O)c1ccsc1NS(=O)(=O)c1ccc(C)c([N+](=O)[O-])c1	92.2
COc1ccc(C2C(C(=O)c3ccc(C)cc3)=C(O)C(=O)N2CCN(C)C)cc1OC (centres unmarked)	90.1
NS(=O)(=O)c1ccccc1Sc1ccccc1	89
CCn1nc(C)c(C(C)NC(=O)C(C)n2cc(Cl)cn2)c1C (centres unmarked)	89.7
O=S(=O)(Nc1nnc(C(F)(F)F)s1)c1ccc(F)cc1	91.4
CCCN(C(=O)CCn1c(=O)oc2cc(Cl)ccc21)C1CCNC1 (centres unmarked) [CBK304311C]	90.5
O=C(N/N=C/c1ccc(O)cc1)C(=O)N/N=C/c1ccc(O)cc1	88.7

QUERY: Item Cc1ccc(C(=O)N2CCC(c3nc4ccccc4s3)CC2)cc1NS(C)(=O)=O has what recorded viability at 28.5 h, 10 µM?
RESULT: 89.2

QUERY: Item Nc1ccc(-c2cn3ccnc3c(NCc3cccs3)n2)cc1 has what recorded viability at 28.5 h, 10 µM?
RESULT: 95.5

QUERY: Item CN(CCOc1ccc(Cl)cc1)C(=O)COc1cc2ccccc2cc1C(=O)O has what recorded viability at 28.5 h, 10 µM?
RESULT: 108

QUERY: Item CCCNC(CC(=O)Nc1ccccc1)C(=O)O (centres unmarked) has what recorded viability at 28.5 h, 10 µM?
RESULT: 95.3

QUERY: Item CN(C)c1ccc(-c2nc(-c3cccc(OC(F)(F)F)c3)cnc2N)cc1 has what recorded viability at 28.5 h, 10 µM?
RESULT: 98.3

QUERY: Item C=CCSc1nnc(CSc2nc3sc4c(c3c(=O)[nH]2)CCCC4)n1-c1ccccc1 has what recorded viability at 28.5 h, 10 µM?
RESULT: 94.4

###

Experiment: in vitro
Conditions: human, hela cells, % viability
compounds and their reported viability at 28.5 h, 10 µM
Give the quantity in %, number only.

The examples below pair each entry with its known result.
COMPOUND	PROPERTY	ENDPOINT_VALUE
CCN(C#N)c1nc(NC)nc(OC)n1	viability at 28.5 h, 10 µM	98.1
N#Cc1sc2nc(C34CC5CC(CC(C5)C3)C4)ccc2c1N	viability at 28.5 h, 10 µM	93.8
O=C1c2ccccc2C(=O)N1CCCc1nn2c(-c3cccnc3)nnc2s1	viability at 28.5 h, 10 µM	80.2
Cc1ccc(-c2ncc(OCc3ccccc3)nc2N)c(C)c1	viability at 28.5 h, 10 µM	90.6
O=C1c2ccc3c4c(ccc(c24)C(=O)N1c1ccncc1)C(=O)N(c1ccncc1)C3=O	viability at 28.5 h, 10 µM	95.4
Cc1ccc(OCc2occc2C(=O)NCCn2ccnc2C)cc1	viability at 28.5 h, 10 µM	93.7
CCCn1ncc(CN2CCC3(CC2)CC(C(=O)O)N(C(C)=O)C3)c1C (stereo not shown)	viability at 28.5 h, 10 µM	86.7
O=C(CSc1ccc(F)cc1)Nc1cc(Cl)ccc1O	viability at 28.5 h, 10 µM	87.5

QUERY: Item O=C(c1ccccc1)N1CCC(c2cccc(Cc3ccccc3Cl)n2)CC1 has what recorded viability at 28.5 h, 10 µM?
RESULT: 88.2

QUERY: Item Oc1cccnc1N1CCN(Cc2ccccc2)CC1 has what recorded viability at 28.5 h, 10 µM?
RESULT: 104

QUERY: Item O=C(CSc1nnc(-c2ccco2)o1)N1CCN(CC(=O)N2CCCC2)CC1 has what recorded viability at 28.5 h, 10 µM?
RESULT: 111

QUERY: Item Cc1ccc(S(=O)(=O)Nn2cnnc2)cc1 has what recorded viability at 28.5 h, 10 µM?
RESULT: 108

QUERY: Item O=C(C1CCCCC1)N1CCCC1c1n[nH]cc1-c1ccncc1 (stereo not shown) has what recorded viability at 28.5 h, 10 µM?
RESULT: 87.2

Provenance of the data: paper PMC12040169
